read-out: TIMP metallopeptidase inhibitor 2 (TIMP2), TIMP2 (gene 7077); experiment: BSK_KF3CT_TIMP2: BioMAP Diversity Plus: KF3CT Assay for TIMP metallopeptidase inhibitor 2 (TIMP2) Biomarker Activity (AID 2283071); conditions: primary human keratinocytes with fibroblasts; actives raise or lower the signal
Active and inactive are the calls of the source. How the source made its calls: active means hit-call score of the fitted dose curve at least 0.9, where 1 is the maximum; inactive means score below 0.9.
Write down one outcome, taken from active, inactive

compound	classification
CC[C@@H]1C[C@H](N(Cc2cc(C(F)(F)F)cc(C(F)(F)F)c2)C(C)=O)c2cc(C(F)(F)F)ccc2N1C(=O)OC(C)C	inactive

Kindly consider the entry below.
Input: Outcome? `CCCC(=O)OCCC(C)C`
Output: inactive
